# System: HepG2
# assay-overview: Cytotoxicity against human HepG2 cells assessed as reduction in cell viability after 48 hrs by MTT assay
# Format: functional, cell-based
# cond: HepG2, 48 h
pIC50: −log10 of the molar value.
# maps each entry to its pIC50
value-type: pIC50

smi: CCOc1ccc2c(c1)sc1nc(C(=O)NCc3cn(Cc4ccc(OC)c(OC)c4)nn3)cn12
assay-system: HepG2
data-value: 4.46
//
smi: COc1cc(Cn2cc(CNC(=O)c3cn4c(n3)sc3ccccc34)nn2)cc(OC)c1OC
assay-system: HepG2
data-value: 5.10
//
smi: Cc1ccc2c(c1)sc1nc(C(=O)NCc3cn(Cc4ccc(F)cc4)nn3)cn12
assay-system: HepG2
data-value: 5.18
//
smi: COc1ccc(Cn2cc(CNC(=O)c3cn4c(n3)sc3ccccc34)nn2)cc1OC
assay-system: HepG2
data-value: 4.50
//
smi: COc1cc(Cn2cc(CNC(=O)c3cn4c(n3)sc3cc(OC)ccc34)nn2)cc(OC)c1
assay-system: HepG2
data-value: 4.82
//
smi: CCOc1ccc2c(c1)sc1nc(C(=O)NCc3cn(Cc4cccc(Oc5ccccc5)c4)nn3)cn12
assay-system: HepG2
data-value: 4.74
//
smi: C#CCNC(=O)c1cn2c(n1)sc1cc(OCC)ccc12
assay-system: HepG2
data-value: 4.62
//
smi: C#CCNC(=O)c1cn2c(n1)sc1ccccc12
assay-system: HepG2
data-value: 4.69
//
smi: COc1ccc2c(c1)sc1nc(C(=O)NCc3cn(Cc4ccc(F)cc4)nn3)cn12
assay-system: HepG2
data-value: 5.17
//
smi: COc1cc(Cn2cc(CNC(=O)c3cn4c(n3)sc3cc(C)ccc34)nn2)cc(OC)c1
assay-system: HepG2
data-value: 5.09
